Each entry below carries its recorded relative viability.
test system: NCI-H3122; assay: relative viability (nuclei count vs DMSO), 5 days (fraction); higher = more cells survive; settings: first compound 0.08 µM

{"COMPOUND": "O=c1[nH]c2ccccc2n1C1CCN(CCCC(c2ccc(F)cc2)c2ccc(F)cc2)CC1 [Pimozide] + Cc1nc(Nc2ncc(C(=O)Nc3c(C)cccc3Cl)s2)cc(N2CCN(CCO)CC2)n1 [Dasatinib] (partner 0.075 µM)", "relative viability": 0.885}
{"COMPOUND": "O=c1[nH]c2ccccc2n1C1CCN(CCCC(c2ccc(F)cc2)c2ccc(F)cc2)CC1 [Pimozide] + CC1(C)CCC(c2ccc(Cl)cc2)=C(CN2CCN(c3ccc(C(=O)NS(=O)(=O)c4ccc(N[C@H](CCN5CCOCC5)CSc5ccccc5)c(S(=O)(=O)C(F)(F)F)c4)cc3)CC2)C1 [Navitoclax] (partner 0.5 µM)", "relative viability": 0.987}

====

tested on: HCC-827; assay: relative viability (nuclei count vs DMSO), 5 days (fraction); higher = more cells survive; conditions: first compound 0.04 µM

{"COMPOUND": "Cc1sc2c(c1C)C(c1ccc(Cl)cc1)=N[C@@H](CC(=O)OC(C)(C)C)c1nnc(C)n1-2 [JQ1] + CS(=O)(=O)N1CCN(Cc2cc3nc(-c4cccc5[nH]ncc45)nc(N4CCOCC4)c3s2)CC1 [Pictilisib] (partner 1 µM)", "relative viability": 1.06}
{"COMPOUND": "Cc1sc2c(c1C)C(c1ccc(Cl)cc1)=N[C@@H](CC(=O)OC(C)(C)C)c1nnc(C)n1-2 [JQ1] + Nc1nc2[nH]cc(CCc3ccc(C(=O)N[C@@H](CCC(=O)O)C(=O)O)cc3)c2c(=O)[nH]1 [Pemetrexed] (partner 0.2 µM)", "relative viability": 0.262}
{"COMPOUND": "Cc1sc2c(c1C)C(c1ccc(Cl)cc1)=N[C@@H](CC(=O)OC(C)(C)C)c1nnc(C)n1-2 [JQ1] + CS(=O)(=O)CCNCc1ccc(-c2ccc3ncnc(Nc4ccc(OCc5cccc(F)c5)c(Cl)c4)c3c2)o1 [Lapatinib] (partner 2 µM)", "relative viability": 0.206}
{"COMPOUND": "Cc1sc2c(c1C)C(c1ccc(Cl)cc1)=N[C@@H](CC(=O)OC(C)(C)C)c1nnc(C)n1-2 [JQ1] + NC(=O)Nc1cc(-c2cccc(F)c2)sc1C(=O)N[C@H]1CCCNC1 [AZD7762] (partner 0.2 µM)", "relative viability": 0.292}
{"COMPOUND": "Cc1sc2c(c1C)C(c1ccc(Cl)cc1)=N[C@@H](CC(=O)OC(C)(C)C)c1nnc(C)n1-2 [JQ1] + CC(C)C[C@H](NC(=O)[C@H](Cc1ccccc1)NC(=O)c1cnccn1)B(O)O [Bortezomib] (partner 0.002 µM)", "relative viability": 0.929}
{"COMPOUND": "Cc1sc2c(c1C)C(c1ccc(Cl)cc1)=N[C@@H](CC(=O)OC(C)(C)C)c1nnc(C)n1-2 [JQ1] + CC1(C)CCC(c2ccc(Cl)cc2)=C(CN2CCN(c3ccc(C(=O)NS(=O)(=O)c4ccc(N[C@H](CCN5CCOCC5)CSc5ccccc5)c(S(=O)(=O)C(F)(F)F)c4)cc3)CC2)C1 [Navitoclax] (partner 0.5 µM)", "relative viability": 0.95}
{"COMPOUND": "Cc1sc2c(c1C)C(c1ccc(Cl)cc1)=N[C@@H](CC(=O)OC(C)(C)C)c1nnc(C)n1-2 [JQ1] + CC(=O)Nc1cccc(-n2c(=O)n(C3CC3)c(=O)c3c(Nc4ccc(I)cc4F)n(C)c(=O)c(C)c32)c1 [Trametinib] (partner 0.02 µM)", "relative viability": 0.562}
{"COMPOUND": "Cc1sc2c(c1C)C(c1ccc(Cl)cc1)=N[C@@H](CC(=O)OC(C)(C)C)c1nnc(C)n1-2 [JQ1] + O=C(CCCCCCC(=O)Nc1ccccc1)NO [Vorinostat] (partner 1 µM)", "relative viability": 0.95}
